testedSystem: Neutrophil elastase (Homo sapiens)
assayOverview: Ratio of Kinact to KI for human neutrophil elastase

- compound: "CCCC1C(=O)N(CS(=O)(=O)N[C@@H](COCc2ccccc2)C(=O)OC)S(=O)(=O)N1C (stereo partly drawn)"
  Ratio, M⁻¹ s⁻¹: 16900
- compound: "CCCC1C(=O)N(CS(=O)(=O)N[C@@H](CCC)C(=O)OC)S(=O)(=O)N1C (stereo partly drawn)"
  Ratio, M⁻¹ s⁻¹: 34600
- compound: "CCCC1C(=O)N(CS(=O)(=O)N[C@@H](CCCCN)C(=O)OC)S(=O)(=O)N1C (stereo partly drawn)"
  Ratio, M⁻¹ s⁻¹: 12900
- compound: "CCCC1C(=O)N(CS(=O)(=O)N[C@@H](CCCCNC(=O)OCc2ccccc2)C(=O)OC)S(=O)(=O)N1C (stereo partly drawn)"
  Ratio, M⁻¹ s⁻¹: 6900
- compound: "CCCC1C(=O)N(CS(=O)(=O)N[C@@H](CO)C(=O)OC)S(=O)(=O)N1C (stereo partly drawn)"
  Ratio, M⁻¹ s⁻¹: 1100
- compound: "CCCC1C(=O)N(CS(=O)(=O)N[C@@H](Cc2ccccc2)C(=O)OC)S(=O)(=O)N1C (stereo partly drawn)"
  Ratio, M⁻¹ s⁻¹: 41800
- compound: "CCCC1C(=O)N(CS(=O)(=O)N[C@@H](C)C(=O)OC)S(=O)(=O)N1C (stereo partly drawn)"
  Ratio, M⁻¹ s⁻¹: 1050
- compound: "CCCC1C(=O)N(CS(=O)(=O)N[C@H](Cc2ccccc2)C(=O)OC)S(=O)(=O)N1C (stereo partly drawn)"
  Ratio, M⁻¹ s⁻¹: 9760

----------
testedSystem: Myeloblastin (Homo sapiens) (UniProt P24158)
Sequence (P24158 whole entry): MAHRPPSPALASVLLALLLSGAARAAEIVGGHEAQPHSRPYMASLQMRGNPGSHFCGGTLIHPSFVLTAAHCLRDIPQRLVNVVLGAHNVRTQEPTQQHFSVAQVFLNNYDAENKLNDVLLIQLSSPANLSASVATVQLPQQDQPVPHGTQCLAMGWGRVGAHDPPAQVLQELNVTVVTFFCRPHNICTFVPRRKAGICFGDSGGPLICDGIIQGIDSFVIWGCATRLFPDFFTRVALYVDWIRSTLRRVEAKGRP
assayOverview: Ratio of Kinact to KI for human PR3
Calls of active or inactive are those of the source. No cut-off for these calls is given here.
readout: Activity

- molecule: "CCCC1C(=O)N(CS(=O)(=O)N[C@@H](CO)C(=O)OC)S(=O)(=O)N1C (stereo partly drawn)"
  readout: "Activity"
  reportedValue: "inactive"
- molecule: "CCCC1C(=O)N(CS(=O)(=O)N[C@@H](CCC)C(=O)OC)S(=O)(=O)N1C (stereo partly drawn)"
  readout: "Activity"
  reportedValue: "inactive"
- molecule: "CCCC1C(=O)N(CS(=O)(=O)N[C@@H](COCc2ccccc2)C(=O)OC)S(=O)(=O)N1C (stereo partly drawn)"
  readout: "Activity"
  reportedValue: "inactive"

----------
Ratio listing for selected compounds.
Species on record: Bos taurus
assayOverview: Ratio of Kobs to [I] for bovine trypsin

- compound: "CCCC1C(=O)N(CS(=O)(=O)N[C@@H](Cc2ccccc2)C(=O)OC)S(=O)(=O)N1C (some centres undefined)"
  Ratio: 50
- compound: "CCCC1C(=O)N(CS(=O)(=O)N[C@@H](CCC)C(=O)OC)S(=O)(=O)N1C (some centres undefined)"
  Ratio: 19
- compound: "CCCC1C(=O)N(CS(=O)(=O)N[C@@H](COCc2ccccc2)C(=O)OC)S(=O)(=O)N1C (some centres undefined)"
  Ratio: 60
- compound: "CCCC1C(=O)N(CS(=O)(=O)N[C@@H](CO)C(=O)OC)S(=O)(=O)N1C (some centres undefined)"
  Ratio: 12
